Target: 5-hydroxytryptamine receptor 1A (Rattus norvegicus)
Sequence (P19327 whole entry): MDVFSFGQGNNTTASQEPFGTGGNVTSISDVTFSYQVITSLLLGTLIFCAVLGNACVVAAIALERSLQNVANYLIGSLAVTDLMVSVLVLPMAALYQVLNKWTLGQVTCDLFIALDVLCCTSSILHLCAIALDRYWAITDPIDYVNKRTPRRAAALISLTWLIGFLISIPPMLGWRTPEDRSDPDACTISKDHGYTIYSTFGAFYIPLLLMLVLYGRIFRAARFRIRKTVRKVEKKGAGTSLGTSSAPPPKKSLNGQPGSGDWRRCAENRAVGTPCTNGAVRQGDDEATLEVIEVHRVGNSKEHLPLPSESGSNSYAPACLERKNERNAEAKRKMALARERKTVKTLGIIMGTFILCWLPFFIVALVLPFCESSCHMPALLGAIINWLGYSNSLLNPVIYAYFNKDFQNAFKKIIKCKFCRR
Assay: Binding affinity in radioreceptor binding assay by using [3H]5-HT radioligand against 5-hydroxytryptamine 1A receptor
METRIC: Ki (nM)
A number alone suffices; assume nM.

Item: FC(F)(F)c1cccc(N2CCNCC2)c1 | Ki: 80.6

* * *

Molecular target: 5-hydroxytryptamine receptor 1B (Rattus norvegicus, UniProt P28564)
Sequence (P28564 whole entry): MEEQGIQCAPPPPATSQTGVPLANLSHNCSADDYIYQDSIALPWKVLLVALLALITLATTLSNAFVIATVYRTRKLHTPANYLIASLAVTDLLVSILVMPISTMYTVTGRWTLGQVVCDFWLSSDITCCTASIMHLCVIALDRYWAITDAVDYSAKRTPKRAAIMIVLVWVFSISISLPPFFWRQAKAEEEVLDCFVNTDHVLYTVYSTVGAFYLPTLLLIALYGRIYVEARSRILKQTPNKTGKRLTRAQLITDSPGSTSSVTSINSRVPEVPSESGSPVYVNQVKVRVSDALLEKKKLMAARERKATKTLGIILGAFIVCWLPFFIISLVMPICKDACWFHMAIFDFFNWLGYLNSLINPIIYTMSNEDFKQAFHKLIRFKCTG
Assay: Binding affinity determined in radioreceptor binding assay by using [3H]5-HT radioligand against 5-hydroxytryptamine 1B receptor
METRIC: Ki (nM)
Kindly answer with a numeric value in nM, unit omitted.

Briefly, Ki measured for Oc1ccccc1N1CCNCC1 : 74.2

* * *

Target: Serotonin 2 (5-HT2) receptor (Rattus norvegicus, UniProt P30994+P08909+P14842)
Assay: Binding affinity at rat 5-hydroxytryptamine 2 receptor by [3H]ketanserin displacement.
Format: protein assay
# Ki values compiled below
Answer with a number only, understood to be in nM.

Examples with their reported Ki follow.
# SMILES_CODE, VALUE_UNITS, Ki
records = [
    ("CCc1ccccc1N1CCNCC1", "nM", 124),
    ("O=[N+]([O-])c1cccc(N2CCNCC2)c1", "nM", 419),
]

Looking up Clc1cccc(N2CCNCC2)c1 , I see its Ki listed as 40

Summary for this compound, CCCCOc1ccccc1N1CCNCC1 : Ki is 277

The compound identified as CCOc1ccccc1N1CCNCC1 registered its Ki at 774

The compound CCCCc1ccccc1N1CCNCC1 showed Ki equal to 204

Form: compound = CC(C)Oc1ccccc1N1CCNCC1 ; Ki = 235

For reference, reported Ki for c1ccc(N2CCNCC2)cc1 stands at 668

In plain terms, CC(C)c1ccccc1N1CCNCC1 has a documented Ki of 190

Summary for this compound, CCCc1ccccc1N1CCNCC1 : Ki is 232

* * *

Target: D(2) dopamine receptor (Rattus norvegicus)
Sequence (P61169 whole entry): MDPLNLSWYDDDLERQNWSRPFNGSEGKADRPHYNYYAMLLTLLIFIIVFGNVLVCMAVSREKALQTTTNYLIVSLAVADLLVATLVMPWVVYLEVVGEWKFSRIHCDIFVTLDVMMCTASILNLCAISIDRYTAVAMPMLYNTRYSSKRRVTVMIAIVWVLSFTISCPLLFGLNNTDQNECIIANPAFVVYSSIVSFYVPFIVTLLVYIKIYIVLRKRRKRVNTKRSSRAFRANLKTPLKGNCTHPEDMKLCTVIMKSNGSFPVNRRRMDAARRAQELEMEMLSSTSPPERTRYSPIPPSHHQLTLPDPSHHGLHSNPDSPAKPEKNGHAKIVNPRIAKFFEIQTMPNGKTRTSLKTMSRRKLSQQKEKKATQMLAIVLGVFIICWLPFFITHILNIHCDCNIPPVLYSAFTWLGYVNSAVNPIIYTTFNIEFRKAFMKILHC
Test: Binding affinity against rat Dopamine receptor D2.
Each record here notes measured pKi.
Give only the number. pKi is defined as minus log10 of concentration in molar units.

Below, each entry is followed by its recorded pKi result.
# SMILES_CODE, pKi
records = [
    ("CCCc1ccccc1N1CCNCC1", 6.42),
    ("CC(C)Oc1ccccc1N1CCNCC1", 7.19),
    ("CCOc1ccccc1N1CCNCC1", 6.84),
    ("CCCCOc1ccccc1N1CCNCC1", 6.61),
    ("CCc1ccccc1N1CCNCC1", 6.35),
    ("CC(C)c1ccccc1N1CCNCC1", 6.95),
]

Form: molecule = CCCCc1ccccc1N1CCNCC1 ; pKi = 6.08

* * *

Target: Serotonin 1 (5-HT1) receptor (Rattus norvegicus, UniProt P28564+P30940+P19327+P28565)
Assay: Inhibition of [3H]5-HT radioligand binding against 5-hydroxytryptamine 1 receptor
Format: protein assay
// NB: equality with 30 nM counts as no; only Ki strictly below is yes

**Q:** Field: below-cutoff. Rule: recorded Ki strictly less than 30 nM. Subject: N#Cc1ccccc1N1CCNCC1
**A:** yes

**Q:** Decide: Ki of O=[N+]([O-])c1cccc(N2CCNCC2)c1 strictly below 30 nM?
**A:** no

* * *

Molecular target: Serotonin 1 (5-HT1) receptor (Rattus norvegicus, UniProt P28564+P30940+P19327+P28565)
Assay: Binding affinity determined in radioreceptor binding assay by using [3H]5-HT radioligand against 5-hydroxytryptamine 1 receptor
Type: protein assay
METRIC: Ki
Could you give the number and then its unit, please?

Past entries and their recorded results:
# SMILES_CODE, ASSAYED_SYSTEM, REPORTED_RESULT
data = [
    ("CCc1ccccc1N1CCNCC1", "Serotonin 1 (5-HT1) receptor (Rattus norvegicus, UniProt P28564+P30940+P19327+P28565)", "17.1 nM"),
    ("Cc1ccccc1N1CCNCC1", "Serotonin 1 (5-HT1) receptor (Rattus norvegicus, UniProt P28564+P30940+P19327+P28565)", "62.4 nM"),
    ("CCCCc1ccccc1N1CCNCC1", "Serotonin 1 (5-HT1) receptor (Rattus norvegicus, UniProt P28564+P30940+P19327+P28565)", "64.8 nM"),
    ("Clc1cncc(N2CCNCC2)n1", "Serotonin 1 (5-HT1) receptor (Rattus norvegicus, UniProt P28564+P30940+P19327+P28565)", "844 nM"),
]

CCCc1ccccc1N1CCNCC1 has a reported Ki of 34.9 nM

The compound listed as CC(C)c1ccccc1N1CCNCC1 shows Ki equal to 23.4 nM

* * *

Molecular target: D(1A) dopamine receptor (Rattus norvegicus)
Assay: Activity in radioreceptor binding assay by using […] against Dopamine receptor D1
pKi: −log10 of the molar value.
METRIC: pKi

In plain terms, CC(C)c1ccccc1N1CCNCC1 has a documented pKi of < 6.00

* * *

Target: 5-hydroxytryptamine receptor 1B (Rattus norvegicus)
Experiment: Binding affinity at rat 5-hydroxytryptamine 1B receptor by [3H]5-HT displacement.
METRIC: Ki (nM)
Quick reminder: number only, in nM, skip the unit.

See these solved cases before continuing.
# SMILES_CODE, REPORTED_RESULT
rows = [
    ("CCCCc1ccccc1N1CCNCC1", 8.4),
    ("CC(C)Oc1ccccc1N1CCNCC1", 6.9),
    ("Clc1cccc(N2CCNCC2)c1", 4.4),
    ("c1ccc(N2CCNCC2)cc1", 63.3),
    ("CCCCOc1ccccc1N1CCNCC1", 4),
]

Measured Ki, Clc1cncc(N2CCNCC2)n1 : 178

// CC(C)c1ccccc1N1CCNCC1 : Ki value = 3.98

Form: compound = Clc1ccccc1N1CCNCC1 ; Ki = 11.7

Per the record, CCc1ccccc1N1CCNCC1 has Ki of 8.2

Note to self: Ki recorded for CCOc1ccccc1N1CCNCC1 was 13.8

Field Ki (entry N#Cc1ccccc1N1CCNCC1 ) reads 21.8

For reference, reported Ki for O=[N+]([O-])c1cccc(N2CCNCC2)c1 stands at 33.6

Noted for Fc1ccccc1N1CCNCC1 : its Ki reads 28.9

The recorded Ki for Fc1cccc(N2CCNCC2)c1 is 30.8

Item: Cc1ccccc1N1CCNCC1 | Ki: 44.6

Lab book: Ki of CCCc1ccccc1N1CCNCC1 noted as 15.9

Reported Ki for COc1ccccc1N1CCNCC1 was 17.3

* * *

Measured Ki by item
Molecular target: D(1A) dopamine receptor (Rattus norvegicus)
Assay: Binding affinity at rat Dopamine receptor D1 by [3H]SCH-23390 displacement.

Reference set (4 entries):
# SMILES_CODE, Ki
data = [
    ("O=[N+]([O-])c1cccc(N2CCNCC2)c1", "> 1000 nM"),
    ("c1ccc(N2CCNCC2)cc1", "> 1000 nM"),
    ("Clc1cncc(N2CCNCC2)n1", "> 1000 nM"),
    ("CC(C)Oc1ccccc1N1CCNCC1", "> 1000 nM"),
]

Please look at the following compound next.
# Ki of COc1ccccc1N1CCNCC1 = > 1000 nM

* * *

Molecular target: 5-hydroxytryptamine receptor 1A (Rattus norvegicus)
Rule: Ki below 30 nM gives Condition met. Equal to or above 30 nM gives Condition not met.

**Q:** Does the reported Ki of c1ccc(N2CCNCC2)cc1 stay below 30 nM?
**A:** Condition not met

**Q:** Hello, is Ki of the following compound strictly smaller than 30 nM? Clc1cncc(N2CCNCC2)n1
**A:** Condition not met

**Q:** Criterion: Ki strictly below 30 nM. Is it met by Oc1ccccc1N1CCNCC1 ?
**A:** Condition not met

* * *

Biological target: D(1A) dopamine receptor (Rattus norvegicus, UniProt P18901)
Sequence (P18901 whole entry): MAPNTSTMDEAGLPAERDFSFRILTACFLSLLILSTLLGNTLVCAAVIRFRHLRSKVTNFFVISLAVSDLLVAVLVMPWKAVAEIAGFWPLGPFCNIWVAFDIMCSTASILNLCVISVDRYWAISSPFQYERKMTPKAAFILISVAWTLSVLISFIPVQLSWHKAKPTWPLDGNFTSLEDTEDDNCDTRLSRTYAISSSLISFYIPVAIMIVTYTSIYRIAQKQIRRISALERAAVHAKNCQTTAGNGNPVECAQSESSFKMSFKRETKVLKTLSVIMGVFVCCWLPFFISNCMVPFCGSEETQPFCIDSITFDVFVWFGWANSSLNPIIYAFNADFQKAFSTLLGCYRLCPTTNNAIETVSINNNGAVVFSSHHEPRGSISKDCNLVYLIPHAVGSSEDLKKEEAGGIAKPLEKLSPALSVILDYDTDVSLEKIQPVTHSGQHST
pKi: −log10 of the molar value.
METRIC: pKi

Note to self: pKi recorded for Clc1ccccc1N1CCNCC1 was < 6.00

* * *

Target: UniProtKB P18901
Assay: Binding affinity in radioreceptor binding assay by using [3H]5-HT radioligand against Dopamine receptor D1
pKi: −log10 of the molar value.
METRIC: pKi

Sure, the documented pKi for FC(F)(F)c1cccc(N2CCNCC2)c1 is < 6.00
